// provenance: patent US20250009742A1

As shown below, each of these compounds has a reported inhibition at 30 µM value.
- Target Desc: Protein (Hepatitis B virus genotype D subtype ayw, UniProt P03146)
- Sequence (P03146 whole entry): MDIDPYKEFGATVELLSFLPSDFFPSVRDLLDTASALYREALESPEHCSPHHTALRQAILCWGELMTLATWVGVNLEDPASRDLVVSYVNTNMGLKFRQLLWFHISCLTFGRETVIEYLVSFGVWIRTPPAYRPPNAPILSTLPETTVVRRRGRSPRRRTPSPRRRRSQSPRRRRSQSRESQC
- Assay Protocol: Protein inhibition rate / EC50 (Table 1, no method described)
- Type: biochemical
Just the number in %, nothing appended.

Compound	Observed Value
COc1ccc(N(Cc2n[nH]c3c2CC(F)(F)CC3)C(=O)Nc2ccc(F)c(Cl)c2)cn1	99.5

Query: What measured inhibition at 30 µM goes with "COc1ccc(N(Cc2cc[nH]n2)C(=O)Nc2ccc(F)c(Cl)c2)cc1" ?
Result: 55.2

Query: What do you get for "COc1cc(OC)cc(N(Cc2n[nH]c3c2CCCC3)C(=O)Nc2ccc(F)c(Cl)c2)c1" ?
Result: 7

Query: Same thing, different compound: "Cn1cc(N(Cc2n[nH]c3c2CCC3)C(=O)Nc2ccc(F)c(Cl)c2)ccc1=O"
Result: 53.5

Query: Follow-up item: "COC(=O)c1ccc(N(Cc2n[nH]c3c2CCCC3)C(=O)Nc2ccc(F)c(Cl)c2)cc1"
Result: 90.4

Query: Next record, please: "COc1ccc(N(Cc2n[nH]c(C)c2C)C(=O)Nc2ccc(F)c(Cl)c2)cn1"
Result: 96.2

Query: Here is the next compound: COC(=O)C1CCc2[nH]nc(CN(C(=O)Nc3ccc(F)c(Cl)c3)c3ccc(OC)nc3)c2C1 (stereo not shown)
Result: 20.1
